Test: protein stability index of a GFP-peptide fusion (GPS, HEK-293T) (PSI 1-6); higher = more stable;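 note: 24-mer peptide tiles fused after GFP, lentivirally expressed, FACS-sorted into six equal bins by GFP/DsRed ratio, decoded by Illumina sequencing, PSI is the read-weighted mean bin number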
Conditions: treatment: DMSO; c terminus: a fixed tail appended
# label = Y if protein stability index >= 3 else N

MVIQLLAIMCVSCICWSPFLVTMA [PTGFR]    Y
GAGLPQFQSISLRKIQFNFPYFRS [CLCN6]    N
EYIVKKLSRQEFLGMVGLFGTIIS [SLC35F2]    N
LGIPYYETSVVAQFGIKDVFDNAI [RHOBTB2]    N
TEPPQNPVTPLGLQNEVPPQPDPV [SERTAD3]    Y

Query: Can FYFKLTDLYKKVKKNSSPPLSLYG [CRY1] be said to have protein stability index at or above 3?
Reply: N

Query: Is it the case that GIPWEAGARQISYSIPEELEKGSF [PCDHGA10] has protein stability index reaching or exceeding 3?
Reply: Y

Query: Item KCMRNGPNALIASLALGDLIYVVI [EDNRA] with protein stability index of 3 or above?
Reply: Y

Query: Identify whether the reported protein stability index of the following sequence is 3 or greater: ENKENEAFEFKKPVRPVSRGCLHS [CDC25A]
Reply: Y

Query: Tell me whether protein stability index is at least 3 here: MEAAREGHEEMVALLLGQGANINA [ANKRD17]
Reply: Y

Query: Kindly determine if protein stability index recorded for AAGYIQCMHEVHTFVSTCQAIDAT [HES6] is above or exactly 3.
Reply: N

Query: // inclusive: protein stability index at least 3? input: HDELLAEHIKSLLIKNNSLPRKRQ [INTS3]
Reply: Y

Query: Is the recorded value of protein stability index equal to or greater than 3 for this sequence? AGSPIRHENAVQGSAVEVQTYQPP [ISL2]
Reply: Y

Query: Please indicate if the recorded protein stability index for YRQHCTLELGSYIKDLSVVHSDLS [CTDNEP1] meets or exceeds 3.
Reply: N

Query: Form field: protein stability index at least 3? Entry: VSQQTGSPGKQPGENSDCHRDSSQ [ZNF8]
Reply: Y

Query: Would you say DFKNPIIEKYLRRQLTKPRPVILD [OAS1] shows protein stability index at minimum 3?
Reply: N

Query: Form field: protein stability index at least 3? Entry: VRLHDSISEEGHHYLIFDLVTGGE [CAMK2A]
Reply: N

Query: Reported protein stability index reaches at least 3 for PMVTSPREEQQLLASTSKPVVKLL [KCTD13] ?
Reply: Y

Query: Answer whether protein stability index of IALYFVSKKFKNCFQSCLCCCCYQ [EDNRA] is greater than or equal to 3.
Reply: Y

Query: Please tell me: is the sequence VAPLADGKVAVGQDDLTVVLNEEG [VPS39] at or over 3 in terms of protein stability index?
Reply: Y

Query: Reported protein stability index reaches at least 3 for GFVFGTTLIMLLSLAAFSVISVVS [RTN3] ?
Reply: Y

Query: // inclusive: protein stability index at least 3? input: HVGDFARDLAARWKKLVLVDRNTR [ELOA2]
Reply: N

Query: API: above_or_equal(metric=protein stability index, cutoff=3) for item NKATNTDHLTTVLYLQLAICSSLQ [C8orf76]
Reply: Y

###

Each item that follows carries a reported protein stability index.
Experiment: protein stability index of a GFP-peptide fusion (GPS, HEK-293T) (PSI 1-6); higher = more stable
Settings: treatment: MLN4924 1 uM, 8 h; c terminus: a fixed tail appended
Respond with the number and no other words.

EGDATRDPGPEPEEEPGVRNGMAS [PSD2]    5.38
EQKNHTFPRLNRNKYMVTDGAAYI [PLD5]    3.19

Query: protein stability index for VTINIQDLLSCSNFAVQHRYLFEE [MATN2] ?
Reply: 2.87

Query: Fill in: protein stability index of ERFSSAPCLLGSRVFSQGSHAWEV [TRIM35] is ___
Reply: 2.46

Query: Suppose we examine the sequence RVLRGRPGAGSRRRGRMALCGQAA [FBXO33] ; what protein stability index value has been reported?
Reply: 4.74

###

Assay: protein stability index of a GFP-peptide fusion (GPS, HEK-293T) (PSI 1-6); higher = more stable
Conditions: treatment: DMSO; c terminus: a fixed tail appended
protein stability index: recorded values
Answer with a number only.

TASFRTSKYLLEEWFQNCYARYHQ [TEKT4]    1.89
YQHFLQDCVDGLFKEVKEKFKGWV [DLC1]    2.26
MMKAKGDLEMKEEEEISETGELVG [ZBED2]    5.59
GQRDRKAEHWKHKKEESGRERKKN [PBXIP1]    5.08

Please look at the following sequence next.
Query: Field request: protein stability index | item: DALISVSYTIITPLFNPMIYSLRN [OR10K2]
Reply: 4.18

###

protein stability index values for the sequences below.
Test: protein stability index of a GFP-peptide fusion (GPS, HEK-293T) (PSI 1-6); higher = more stable
Details: treatment: MLN4924 1 uM, 8 h; c terminus: a fixed tail appended
I only need the number, thanks.

# annotated cases, reported protein stability index shown
SLAAFSVISVVSYLILALLSVTIS [RTN3]    2.8
QYAIISEAWRLVEEGIVSPSDLDL [CRYL1]    3.21
LEDGFYLTAFICFLVFILNAGLVW [MFSD9]    2.73
RIFTSNTHSSVVLQGFDQLRLEGL [KLHL13]    2.49
QKEGEFSTCFTELQRDFLKQRPTK [OAS1]    4.22
GHGTRKRVPLGRLELLEEVLALGL [RSAD1]    2.3
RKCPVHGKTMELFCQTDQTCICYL [TRIM29]    3.72
GLAFFTFPNIASATKFKQLYRSRM [HMOX1]    1.98
SQELPPPDPGPSPEASHLRFRRFR [ZNF263]    5.14
QVTASDSGDPPLSSNVSLSLFVLD [PCDHGA10]    3.48

Query: Query (sequence): RPARSTLDELLGRGMATKLLARPG [FBF1] ; field requested: protein stability index
Reply: 2.63

Query: What value of protein stability index has been reported for the following sequence? SYKNLTLKFHKLVNVTIHFRLKTI [MCOLN1]
Reply: 3.03

Query: Bench note: what protein stability index did SFVYVNPEDGRIFAQRTFDYELLQ [PCDHGC5] show?
Reply: 2.56

Query: Look at this sequence and give its reported protein stability index. SSTTGLFYSAEIICAIEYLHSKEI [PRKX]
Reply: 3.33

Query: # input sequence: RSIPDTQLEQVIESQKANQCAVLI [ACSBG2] ; wanted: its protein stability index
Reply: 3.67

Query: Record request: protein stability index value, item EAEADEEADPPASDLPTPQAIEPQ [SNX8]
Reply: 5.63

Query: protein stability index; subject: PLLGVKGDGKSKKKQAGRPKGSKG [RBBP5]
Reply: 4.88

###

Assay: protein stability index of a GFP-peptide fusion (GPS, HEK-293T) (PSI 1-6); higher = more stable
Settings: treatment: DMSO; c terminus: a fixed tail appended
Reported metric: protein stability index
Give the figure only, with no unit attached.

Below are worked cases with known answers.
LPEELRRLSGLSSVGHNWRKRMGT [C22orf15]    2.99
SFSNYRPFEPQALGLSPSWRLTGF [SEPHS2]    1.95
RYLVGEHQADLEVANRHGHTCLMI [FEM1A]    2.19
KEAKEFLVQLRNMVQQIQENSVEF [TRIM9]    2.29

Query: Using the record for HCLDQVGLFRKSGVKSRIQALRQM [DLC1] , report its protein stability index.
Reply: 2.48

###

Assay: protein stability index of a GFP-peptide fusion (GPS, HEK-293T) (PSI 1-6); higher = more stable
Details: treatment: MLN4924 1 uM, 8 h; c terminus: a fixed tail appended
Reported metric: protein stability index
// return just the number, without any unit appended

Example cases with answers are listed next.
LAAGSAVFDAMFNGGMATTSAEIE [BTBD1]    3.75
TVRGATGIFPLSFVKILKDFPEED [NCF4]    3.57
RDKILTATIENNRVILEIDNARLA [KRT13]    2.83
MSLVLHGNNLLVFGGTGIPFGESN [KLHDC10]    2.81
LTLYNPTGTALRFRVLCTAPAKYT [MOSPD3]    2.69
TIFEKENFIGRQWEISDDYPSLQA [CRYBA1]    3
TRIEKRIVITGDADIDHDQALAQA [EPB41L3]    4.72
ILELYNIDSHLLLSVLPQLEFKLK [PDS5B]    2.45

Query: Look at this sequence and give its reported protein stability index. LAVAGGPRKTAAPVNALVSHLLVV [ESRRA]
Reply: 2.85

Query: State the recorded protein stability index for this entry: AHTATASAVEGAPPARPRPRSPEC [IRX6]
Reply: 5.19
